Taken from PubChem BioAssay AID330.

Catalogue of molecules with associated T/C
# Test system: P388 leukemia ip, CD2F1 mice, survival T/C
# experiment.description: NCI In Vivo Anticancer Drug Screen. Data for tumor model P388 Leukemia (intraperitoneal) in CD2F1 (CDF1) mice
# measurement.setup: endpoint: median survival time; dose: 400.0 mg/kg/injection; schedule: Q01DX001 (ip); vehicle: saline with Tween-80; higher = longer survival
Inconclusive results and toxic doses are left out.

1. CSc1nc2n(Cc3cn(C)c(=O)n(C)c3=O)cc(C)cc-2c(=O)n1 ... 94 % of control

query: Endpoint output: T/C of "CCOc1ccc(N=Nc2c(O)n(-c3ccc(Br)cc3)c(=S)n(-c3ccccc3)c2=O)cc1" . Value?
result: 100 % of control

query: "CCOC(=O)c1[nH]c2c(cc(C=O)c3ccccc32)c1C" , same question.
result: 90 % of control

query: "CCOC(=O)c1c(-c2ccccc2)oc2ccc(NS(=O)(=O)c3ccccc3)cc12" , same question.
result: 95 % of control

###

Catalogue of molecules with associated T/C
# Test system: P388 leukemia ip, CD2F1 mice, survival T/C
# experiment.description: NCI In Vivo Anticancer Drug Screen. Data for tumor model P388 Leukemia (intraperitoneal) in CD2F1 (CDF1) mice
# measurement.setup: endpoint: median survival time; dose: 12.5 mg/kg/injection; schedule: Q01DX009 (ip); vehicle: water; higher = longer survival
Toxic doses and inconclusive results are not listed.

Below are worked cases with known answers.
1. CC(C)=CCC(OC(=O)C=C(C)C)C1=CC(=O)c2c(O)ccc(O)c2C1=O (stereo not given) ... 119 % of control
2. O=S(=O)(OI(O)c1ccccc1)c1ccc(Cl)cc1 ... 101 % of control
3. COc1cc2c(cc1OC)C(N)CCC2 (stereo not given) ... 96 % of control

query: Endpoint output: T/C of COC(=O)C1C(C)(C)N=[N+]([O-])C1(C)C (stereo not given) . Value?
result: 102 % of control

query: "Cc1ccnc(NN=O)c1" , same question.
result: 87 % of control

###

# Test system: P388 leukemia ip, CD2F1 mice, survival T/C
# experiment.description: NCI In Vivo Anticancer Drug Screen. Data for tumor model P388 Leukemia (intraperitoneal) in CD2F1 (CDF1) mice
# measurement.setup: endpoint: median survival time; dose: 6.25 mg/kg/injection; schedule: Q01DX009 (ip); vehicle: saline
Inconclusive results and toxic doses are left out. The calls were made as follows: active = survival T/C of 150% or more; inactive = T/C below 125% in these data.
Parameter call: string, one of TRUE for active, FALSE for inactive

Some entries whose results are on file:
1) Cc1ccc(C2=Nc3ccccc3SC(c3cccc([N+](=O)[O-])c3)C2)cc1 (centres undefined) ... FALSE
2) Cn1cnccc1=O ... FALSE
3) COc1cc(N2C(N)=NC(N)=NC2(C)C)cc(OC)c1OC ... FALSE
4) Oc1ccc(/C=N/Nc2nnc(N/N=C/c3ccc(O)cc3O)c3ccccc23)c(O)c1 ... FALSE

query: What was the test verdict on "NC(=S)N/N=C\c1nccc2c(N)cccc12" ?
result: TRUE

query: "Cc1csc(=NCc2cccnc2)n1C" , same question.
result: FALSE

query: "Clc1ccc(SSN2CCOCC2)cc1" , same question.
result: FALSE

query: "CC[N+]1(C)CCCCC1" , same question.
result: FALSE

query: COc1cc2c(c(OC)c1OC)-c1ccc(SC)c(=O)cc1[C@@H](NC1OC(CO)C(O)C(O)C1O)CC2 (some centres undefined) , same question.
result: FALSE

query: NC(CO)C(=O)O.[Cl-].[Cl-].[Cl-].[Cl-].[Pt+2] (centres undefined) , same question.
result: FALSE
